Hey, just so you know, these numbers are from patent US9273040B2.

TEST SYSTEM: human Nav1.7 channels stably expressed in HEK 293 cells (Homo sapiens, UniProt Q15858)
Construct: expressed in transfected cells
Sequence (Q15858 whole entry): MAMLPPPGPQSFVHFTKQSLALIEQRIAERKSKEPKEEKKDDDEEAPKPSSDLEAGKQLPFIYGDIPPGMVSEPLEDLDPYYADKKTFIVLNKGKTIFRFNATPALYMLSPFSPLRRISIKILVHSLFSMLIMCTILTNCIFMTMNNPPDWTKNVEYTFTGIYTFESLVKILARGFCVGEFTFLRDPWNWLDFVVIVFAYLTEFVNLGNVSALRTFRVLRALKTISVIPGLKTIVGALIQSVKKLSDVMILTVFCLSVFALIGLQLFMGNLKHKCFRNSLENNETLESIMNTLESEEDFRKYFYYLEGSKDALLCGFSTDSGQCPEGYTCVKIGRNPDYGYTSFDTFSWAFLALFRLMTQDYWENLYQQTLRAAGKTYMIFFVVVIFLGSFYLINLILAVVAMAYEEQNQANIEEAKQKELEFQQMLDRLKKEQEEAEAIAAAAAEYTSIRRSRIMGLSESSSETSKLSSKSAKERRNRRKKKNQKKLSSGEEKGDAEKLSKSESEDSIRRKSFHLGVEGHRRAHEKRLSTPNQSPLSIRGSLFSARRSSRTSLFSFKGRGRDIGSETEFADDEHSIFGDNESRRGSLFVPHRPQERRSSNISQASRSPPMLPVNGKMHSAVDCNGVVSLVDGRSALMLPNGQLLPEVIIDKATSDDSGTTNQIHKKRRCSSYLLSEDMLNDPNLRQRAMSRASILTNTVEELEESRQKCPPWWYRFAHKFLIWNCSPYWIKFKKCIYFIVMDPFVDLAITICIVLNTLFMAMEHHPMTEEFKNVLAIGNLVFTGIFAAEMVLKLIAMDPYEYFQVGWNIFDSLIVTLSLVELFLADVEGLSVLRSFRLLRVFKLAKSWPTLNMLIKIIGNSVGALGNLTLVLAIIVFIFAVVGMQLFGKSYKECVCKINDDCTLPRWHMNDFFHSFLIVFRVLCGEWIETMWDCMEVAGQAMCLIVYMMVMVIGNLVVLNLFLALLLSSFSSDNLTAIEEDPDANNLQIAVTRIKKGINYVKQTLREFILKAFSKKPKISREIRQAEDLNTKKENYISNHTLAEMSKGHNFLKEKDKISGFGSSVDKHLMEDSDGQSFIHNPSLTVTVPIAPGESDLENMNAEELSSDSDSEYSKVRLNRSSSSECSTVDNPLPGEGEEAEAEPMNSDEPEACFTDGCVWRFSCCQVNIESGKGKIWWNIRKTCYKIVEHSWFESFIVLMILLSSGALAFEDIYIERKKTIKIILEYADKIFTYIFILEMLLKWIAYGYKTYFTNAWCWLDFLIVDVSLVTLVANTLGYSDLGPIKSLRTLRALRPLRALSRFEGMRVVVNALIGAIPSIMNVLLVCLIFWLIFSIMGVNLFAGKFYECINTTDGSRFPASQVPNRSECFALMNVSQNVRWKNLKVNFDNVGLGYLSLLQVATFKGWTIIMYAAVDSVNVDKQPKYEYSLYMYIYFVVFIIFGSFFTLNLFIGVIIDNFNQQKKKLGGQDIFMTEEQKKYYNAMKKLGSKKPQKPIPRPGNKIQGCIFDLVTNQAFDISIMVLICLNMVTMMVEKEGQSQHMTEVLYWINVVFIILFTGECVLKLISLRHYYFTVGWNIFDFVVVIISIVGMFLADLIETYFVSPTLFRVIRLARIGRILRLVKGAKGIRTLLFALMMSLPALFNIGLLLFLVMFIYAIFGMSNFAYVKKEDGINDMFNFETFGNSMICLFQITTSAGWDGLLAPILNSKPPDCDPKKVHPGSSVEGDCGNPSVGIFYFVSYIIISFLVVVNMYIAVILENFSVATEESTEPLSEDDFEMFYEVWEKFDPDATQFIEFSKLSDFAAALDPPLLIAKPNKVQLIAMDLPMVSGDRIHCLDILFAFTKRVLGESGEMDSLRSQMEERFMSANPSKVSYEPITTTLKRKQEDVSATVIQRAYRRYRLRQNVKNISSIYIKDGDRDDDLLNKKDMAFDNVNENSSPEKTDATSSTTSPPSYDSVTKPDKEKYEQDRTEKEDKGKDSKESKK
ASSAY PROTOCOL: PatchXpress 7000 automated patch-clamp, sodium current
Type: cell-based
RUN CONDITIONS: 22° C., read-out: potency for the Nav 1.7 sodium ion channel (as measured by PatchXpress)
QUANTITY KIND: IC50 (nM)

{"columns": ["MOLECULE", "TEST SYSTEM", "QUANTITY KIND", "READOUT UNIT", "RESULT NUMBER"],
 "data": [
  ["C[C@H](c1ccccc1)n1c(=O)oc2cc(S(=O)(=O)Nc3nccs3)c(F)cc21 [Compound 43-2]", "human Nav1.7 channels stably expressed in HEK 293 cells (Homo sapiens, UniProt Q15858)", "IC50", "nM", 68],
  ["CC1(C)CCC(n2c(=O)oc3cc(S(=O)(=O)Nc4ncns4)c(F)cc32)c2ccccc21 (stereo not shown) [Compound 39-12]", "human Nav1.7 channels stably expressed in HEK 293 cells (Homo sapiens, UniProt Q15858)", "IC50", "nM", 159],
  ["Nc1cc2c(Cn3c(=O)oc4cc(S(=O)(=O)Nc5ncns5)c(F)cc43)cccc2cn1 [Compound 26-5]", "human Nav1.7 channels stably expressed in HEK 293 cells (Homo sapiens, UniProt Q15858)", "IC50", "nM", 67],
  ["O=c1oc2cc(S(=O)(=O)Nc3ncns3)c(F)cc2n1Cc1cccc2c1C1CC1C=C2 (stereo not shown) [Compound 11-13]", "human Nav1.7 channels stably expressed in HEK 293 cells (Homo sapiens, UniProt Q15858)", "IC50", "nM", 49],
  ["C[C@H](c1ccccc1CCCN)n1c(=O)oc2cc(S(=O)(=O)Nc3ncns3)c(F)cc21 [Compound 33-7]", "human Nav1.7 channels stably expressed in HEK 293 cells (Homo sapiens, UniProt Q15858)", "IC50", "nM", 51],
  ["O=c1oc2cc(S(=O)(=O)Nc3ncns3)c(F)cc2n1[C@H]1CC2(CCC2)Oc2ccc(F)cc21 [Compound 39-17]", "human Nav1.7 channels stably expressed in HEK 293 cells (Homo sapiens, UniProt Q15858)", "IC50", "nM", 53],
  ["O=c1oc2cc(S(=O)(=O)Nc3nccs3)c(F)cc2n1C1CCCc2ccncc21 (stereo not shown) [Compound 43-3]", "human Nav1.7 channels stably expressed in HEK 293 cells (Homo sapiens, UniProt Q15858)", "IC50", "nM", 550],
  ["CCN1CCc2cccc(Cn3c(=O)oc4cc(S(=O)(=O)Nc5ncns5)ccc43)c2C1 [Compound 6-2]", "human Nav1.7 channels stably expressed in HEK 293 cells (Homo sapiens, UniProt Q15858)", "IC50", "nM", 234],
  ["C[C@H](c1ccccc1C#CCC(C)(C)N)n1c(=O)oc2cc(S(=O)(=O)Nc3ncns3)c(F)cc21 [Compound 17-15]", "human Nav1.7 channels stably expressed in HEK 293 cells (Homo sapiens, UniProt Q15858)", "IC50", "nM", 32],
  ["C[C@H](c1ccccc1CN(C)C)n1c(=O)oc2cc(S(=O)(=O)Nc3ncns3)c(F)cc21 [Compound 18-5]", "human Nav1.7 channels stably expressed in HEK 293 cells (Homo sapiens, UniProt Q15858)", "IC50", "nM", 13],
  ["C[C@@H](c1cccc2cncn12)n1c(=O)oc2cc(S(=O)(=O)Nc3ncns3)c(F)cc21 [Compound 15-4]", "human Nav1.7 channels stably expressed in HEK 293 cells (Homo sapiens, UniProt Q15858)", "IC50", "nM", 235],
  ["Nc1cc2cccc(Cn3c(=O)oc4cc(S(=O)(=O)Nc5ncns5)c(F)cc43)c2cn1 [Compound 27-5]", "human Nav1.7 channels stably expressed in HEK 293 cells (Homo sapiens, UniProt Q15858)", "IC50", "nM", 67],
  ["C[C@@H](c1cccc2c1CNCC2)n1c(=O)oc2cc(S(=O)(=O)Nc3ncns3)c(F)cc21 [Compound 11-6]", "human Nav1.7 channels stably expressed in HEK 293 cells (Homo sapiens, UniProt Q15858)", "IC50", "nM", 322],
  ["O=c1oc2cc(S(=O)(=O)Nc3ncns3)ccc2n1Cc1ccccc1 [Compound 1-10]", "human Nav1.7 channels stably expressed in HEK 293 cells (Homo sapiens, UniProt Q15858)", "IC50", "nM", 486],
  ["C[C@H](c1ccccc1C#CCNS(C)(=O)=O)n1c(=O)oc2cc(S(=O)(=O)Nc3ncns3)c(Br)cc21 [Compound 36-4]", "human Nav1.7 channels stably expressed in HEK 293 cells (Homo sapiens, UniProt Q15858)", "IC50", "nM", 169],
  ["O=c1oc2cc(S(=O)(=O)Nc3ncns3)c(F)cc2n1CC1CC1c1ccccc1 (stereo not shown) [Compound 11-10]", "human Nav1.7 channels stably expressed in HEK 293 cells (Homo sapiens, UniProt Q15858)", "IC50", "nM", 44]
]}
